Below, each of the molecules is paired with its reported ΔTm at 500 µM value.
- tested.target: UniProtKB Q9Y5N5
- Sequence (Q9Y5N5 whole entry): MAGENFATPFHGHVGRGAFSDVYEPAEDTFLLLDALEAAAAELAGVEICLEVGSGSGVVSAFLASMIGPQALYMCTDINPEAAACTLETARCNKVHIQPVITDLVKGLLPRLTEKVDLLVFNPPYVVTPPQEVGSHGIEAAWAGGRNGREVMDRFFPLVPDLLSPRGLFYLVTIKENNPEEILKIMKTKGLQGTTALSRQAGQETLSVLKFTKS
- Sequence (Q9UI30 1-120 isoform Q9UI30-2 partner): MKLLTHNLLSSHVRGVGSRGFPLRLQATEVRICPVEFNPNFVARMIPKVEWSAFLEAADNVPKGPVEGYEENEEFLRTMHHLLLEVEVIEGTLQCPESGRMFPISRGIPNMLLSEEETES
- method.description: KMT9 thermal shift assay (SyproOrange)
- Assay type: binding
- condition.summary: ΔTm; 500 µM compound, 2 μM KMT9, 5X SO; read-out: Thermal shift
readout.kind: ΔTm at 500 µM

>>> test_result("CCc1cn([C@@H]2C[C@H](CNCCCNCCc3ccc(F)cc3)[C@@H](O)[C@H]2O)c2ncnc(N)c12 [Compound 381]")
"10 to 15 °C"
>>> test_result("CNc1ncnc2c1ccn2[C@@H]1C[C@H](CN(CCCN)c2cn[nH]c2Br)[C@@H](O)[C@H]1O [Compound 606]")
"≤ 10 °C"
>>> test_result("NC[C@H]1C[C@@H](n2cc3c4c(ncnc42)NC(=O)CC3)[C@H](O)[C@@H]1O [Compound 626]")
"≤ 10 °C"
>>> test_result("Nc1ncnc2c1c(-c1ncns1)cn2[C@@H]1C[C@H](CNCCCNCCc2ccccc2)[C@@H](O)[C@H]1O [Compound 601]")
"10 to 15 °C"
>>> test_result("Nc1ncnc2c1ncn2[C@@H]1O[C@H](C(=O)NCCCNCCc2cccc(Oc3ccccc3)c2)[C@@H](O)[C@H]1O [299 (196)]")
"10 to 15 °C"
>>> test_result("CNc1ncnc2c1ccn2[C@@H]1C[C@H](COCCCNCCc2cccc(Oc3ccccc3)c2)[C@@H](O)[C@H]1O [421 (292)]")
"≤ 10 °C"
>>> test_result("CCc1cn([C@@H]2C[C@H](CNCCCNCCc3ccccc3)[C@@H](O)[C@H]2O)c2ncnc(C)c12 [Compound 611]")
"≤ 10 °C"
